system name: STARD4 (Homo sapiens, UniProt Q96DR4, C75S)
Construct: STARD4(2-205; C75S); made in house; host or cells: E. coli BL21(DE3)
Sequence (Q96DR4 2-205 C75S): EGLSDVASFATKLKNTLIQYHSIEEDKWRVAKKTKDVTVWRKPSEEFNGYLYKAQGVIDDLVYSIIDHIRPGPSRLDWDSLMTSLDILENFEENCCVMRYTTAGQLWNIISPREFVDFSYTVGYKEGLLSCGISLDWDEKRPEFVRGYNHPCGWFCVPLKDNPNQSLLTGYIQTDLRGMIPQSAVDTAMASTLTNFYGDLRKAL
experimental protocol: Differential scanning fluorimetry (DSF), STARD4
Format: binding
condition label: maximal thermal shift
Let's look at some compounds and their measured STARD4 (DSF) ΔTmmax.
Number only, in °C; omit the unit.

compound: CC12CCC3CC1CCC21C(=Nc2ccc(NCc4ccccc4)cc21)O3 (centres unmarked) [Compound 19b]
system name: STARD4 (Homo sapiens, UniProt Q96DR4, C75S)
unit label: °C
STARD4 (DSF) ΔTmmax: 7.3
--
compound: CC12CCC3CC1CCC21C(=Nc2ccc(N4CCOCC4)cc21)O3 (racemic) [Compound 19a]
system name: STARD4 (Homo sapiens, UniProt Q96DR4, C75S)
unit label: °C
STARD4 (DSF) ΔTmmax: 1.1
--
compound: CCCCCNc1ccc2c(c1)[C@@]13CC[C@@H]4C[C@@H](CC[C@@]41C)OC3=N2 [Compound 19c]
system name: STARD4 (Homo sapiens, UniProt Q96DR4, C75S)
unit label: °C
STARD4 (DSF) ΔTmmax: 7.2
--
compound: C[C@@]12CC[C@H]3C[C@@H]1CC[C@]21C(=Nc2ccc(Br)cc21)O3 [(−)-15b]
system name: STARD4 (Homo sapiens, UniProt Q96DR4, C75S)
unit label: °C
STARD4 (DSF) ΔTmmax: 3.6
--
compound: CC12CCC3CC1CCC21C(=Nc2ccc(N4CCOCC4)cc21)O3 (single isomer, unassigned; (+)) [(+)-19a]
system name: STARD4 (Homo sapiens, UniProt Q96DR4, C75S)
unit label: °C
STARD4 (DSF) ΔTmmax: 1.1

Q: Please indicate STARD4 (DSF) ΔTmmax recorded for CC12CCC3CC1CCC21C(=Nc2ccc(Br)cc21)O3 (single isomer, unassigned; (+)) [(+)-15b]
Result: 1.4

Q: Please supply the value of reported STARD4 (DSF) ΔTmmax for the item CCCCN(C)c1ccc2c(c1)[C@@]13CC[C@@H]4C[C@@H](CC[C@@]41C)OC3=N2 [Compound 19d]
Result: 5.2

Q: Kindly indicate its recorded STARD4 (DSF) ΔTmmax. Item: C[C@]12CC[C@@H]3C[C@H]1CC[C@@]21C(=Nc2ccc(N4CCN(Cc5ccncc5)CC4)cc21)O3 [Compound 24]
Result: 4.2
